Entries with reported pKi on UniProt P35462
Sequence (P35462 whole entry): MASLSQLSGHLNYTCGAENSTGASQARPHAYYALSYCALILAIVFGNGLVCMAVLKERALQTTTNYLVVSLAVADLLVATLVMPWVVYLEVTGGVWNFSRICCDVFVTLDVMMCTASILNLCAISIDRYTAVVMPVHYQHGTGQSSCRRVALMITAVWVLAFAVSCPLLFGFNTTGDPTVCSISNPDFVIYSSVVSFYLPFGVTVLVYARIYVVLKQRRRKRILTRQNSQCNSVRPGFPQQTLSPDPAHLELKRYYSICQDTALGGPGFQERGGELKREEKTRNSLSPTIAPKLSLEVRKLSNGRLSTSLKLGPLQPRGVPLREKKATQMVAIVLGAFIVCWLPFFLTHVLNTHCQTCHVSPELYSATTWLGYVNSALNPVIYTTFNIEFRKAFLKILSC
Recall that pKi is obtained by taking minus log10 of the concentration measured in molar.

CCCCN1CCN(c2cc(CC)cc(Cl)c2OC)CC1 | 7.65
CCc1cc(Cl)c(OC)c(N2CCNCC2)c1 | 6.35

Data request: Please tell me: pKi of CCCCN1CCN(c2cccc(CC)c2Cl)CC1 , system UniProt P35462?
Data returned: 9.44
